Reported pIC50 is given for each of the following compounds.
# system: UniProt:P51684
# protocolNotes: Migration (chemotaxis) assay, hCCR6-transfected Ba/F3 cells toward CCL20
# conditionLabel: hCCR6-transfected Ba/F3 cells in human serum; recombinant human CCL20 10 nM; 37° C. 45 minutes; read-out: Potency (IC50 value in the migration assay)
pIC50: −log10 of the molar value.

Worked examples follow.
O=S(=O)(c1ccc(N2CC[C@@H](O)C2)cc1)N1CCC(Nc2ccc(C(F)(F)F)cn2)CC1 [Example 1.186] | 5.00 to 7.00
N#Cc1c[nH]c2cc(-c3ccc(S(=O)(=O)N4CCC(Nc5ccc(C(F)(F)F)cn5)CC4)cc3)ccc12 [Example 1.101] | 7.00 to 8.30
O=C1NCCCC12CCN(c1ccc(S(=O)(=O)N3CCC(Nc4ccc(C(F)(F)F)cn4)CC3)cc1)CC2 [Example 1.165] | > 8.30
O=S(=O)(c1ccc(N2CCC[C@@H](O)C2)cc1)N1CCC(Nc2ccc(C(F)(F)F)cn2)CC1 [Example 1.185] | 7.00 to 8.30
O=S(=O)(c1ccc(N2CCC(O)CC2)c(F)c1)N1CCC(Nc2ccc(C(F)(F)F)cn2)CC1 [Example 1.208] | 5.00 to 7.00
O=S1(=O)CCN(c2ccc(S(=O)(=O)N3CCC(Nc4ccc(C(F)(F)F)cn4)CC3)cc2)CC1 [Example 1.231] | 5.00 to 7.00
Nc1nnc2ccc(-c3ccc(S(=O)(=O)N4CCC(Nc5ccc(C(F)(F)F)cn5)CC4)cc3)cn12 [Example 1.016] | > 8.30
NS(=O)(=O)C1CCN(c2ccc(S(=O)(=O)N3CCC(Nc4ccc(C(F)(F)F)cn4)CC3)cc2)CC1 [Example 1.189] | 5.00 to 7.00
O=S(=O)(c1ccc(-c2cnc3[nH]ccc3c2)cc1)N1CCC(Nc2ccc(C(F)(F)F)cn2)CC1 [Example 1.089] | > 8.30
O=S(=O)(c1ccc(N2CCCCC2)cc1)N1CCC(Nc2ccc(C(F)(F)F)cn2)CC1 [Example 1.235] | 7.00 to 8.30

Task: Fill in: pIC50 of CC(C)(C)OC(=O)NCCn1cc(C#N)c2cc(-c3ccc(S(=O)(=O)N4CCC(Nc5ccc(C(F)(F)F)cn5)CC4)cc3)cnc21 [Example 1.014] is ___
Output: > 8.30

Task: // same read-out, input: O=S(=O)(c1ccc(N2CCN(c3nnc[nH]3)CC2)cc1)N1CCC(Nc2ccc(C(F)(F)F)cn2)CC1 [Example 1.174]
Output: 5.00 to 7.00

Task: // same read-out, input: N=[S@](=O)(c1ccc(-c2ccc3[nH]cnc3c2)cc1)N1CCC(Nc2ccc(C(F)(F)F)cc2)CC1 [Example 1.104]
Output: 7.00 to 8.30

Task: // same read-out, input: CC1(C)NC(=O)c2ncc(-c3ccc(S(=O)(=O)N4CCC(Nc5ccc(C(F)(F)F)cn5)CC4)cc3)cc21 [Example 1.009]
Output: > 8.30

###

# system: human CCR6 (Homo sapiens, UniProt P51684)
# Sequence (P51684 1-374): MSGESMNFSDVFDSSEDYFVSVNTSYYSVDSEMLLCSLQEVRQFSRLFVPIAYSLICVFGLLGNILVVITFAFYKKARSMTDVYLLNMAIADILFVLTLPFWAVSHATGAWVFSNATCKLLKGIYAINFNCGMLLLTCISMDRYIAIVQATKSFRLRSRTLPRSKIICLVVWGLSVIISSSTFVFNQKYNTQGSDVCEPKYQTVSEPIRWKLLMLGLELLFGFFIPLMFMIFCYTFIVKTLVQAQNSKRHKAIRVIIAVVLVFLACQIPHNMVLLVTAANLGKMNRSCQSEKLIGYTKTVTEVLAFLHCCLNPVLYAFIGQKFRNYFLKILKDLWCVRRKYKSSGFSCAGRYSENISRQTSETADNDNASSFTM
# protocolNotes: Migration (chemotaxis) assay, hCCR6-transfected Ba/F3 cells toward CCL20
# conditionLabel: hCCR6-transfected Ba/F3 cells in human serum; recombinant human CCL20 10 nM; 37° C. 45 minutes; read-out: Potency (IC50 value in the migration assay)
pIC50: −log10 of the molar value.
experimentalReadout: pIC50

Worked examples follow.
NC(=O)N1CCC2(CCN(c3ccc(S(=O)(=O)N4CCC(Nc5ccc(C(F)(F)F)cn5)CC4)cc3)C2)C1 (stereo not shown) [Example 1.175] | 7.00 to 8.30
O=C1Nc2ccc(-c3ccc(S(=O)(=O)N4CCC(Nc5ccc(C(F)(F)F)cn5)CC4)cc3)cc2C12CCNCC2 [Example 1.028] | 7.00 to 8.30
Cc1nc2c(s1)CN(c1ccc(S(=O)(=O)N3CCC(Nc4ccc(C(F)(F)F)cn4)CC3)cc1)CC2 [Example 1.221] | 7.00 to 8.30

# context switch: different molecule, same pIC50
Task: Fill in: pIC50 of O=S(=O)(c1ccc(N2CCC(Cc3ncc[nH]3)CC2)cc1)N1CCC(Nc2ccc(C(F)(F)F)cn2)CC1 [Example 1.131] is ___
Output: 5.00 to 7.00
